Reported EC50 values are given for each entry in this list.
Target: T1, human TNFR2 on the cell membrane (human, UniProt P20333 23-461)
T1 construct: whole, on cells; One molecule for all cell formats; also called TNFR2-CHO cells; CHO-TNFR2
T1 sequence (looked up): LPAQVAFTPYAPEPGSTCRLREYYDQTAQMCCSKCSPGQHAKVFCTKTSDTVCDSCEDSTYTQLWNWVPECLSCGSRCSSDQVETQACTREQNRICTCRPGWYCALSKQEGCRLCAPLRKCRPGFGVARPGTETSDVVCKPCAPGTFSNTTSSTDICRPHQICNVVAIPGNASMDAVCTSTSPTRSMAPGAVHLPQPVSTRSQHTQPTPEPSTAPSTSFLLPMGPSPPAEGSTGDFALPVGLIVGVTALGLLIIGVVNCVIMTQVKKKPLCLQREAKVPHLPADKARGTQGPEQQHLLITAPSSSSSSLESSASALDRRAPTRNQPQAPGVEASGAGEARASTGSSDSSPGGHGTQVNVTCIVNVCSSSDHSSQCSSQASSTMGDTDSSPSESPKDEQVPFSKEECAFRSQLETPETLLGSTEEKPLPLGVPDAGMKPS
Test: flow cytometry on CHO-TNFR2 cells
Quick note: give the figure in µg/mL, leave out the unit.

[[record]]
binder = "11G2huVH5 + huVL3(P07275) (antibody, V domains shown, Humanized 11G2) VH: QVQLVQSGAEVKKPGASVKVSCKASGYTFITYDINWVRQATGQGLEWIGWIYPRDGNTQYAQKFQGRVTMTRNTSISTAYMELSSLRSEDTAVYYCARGDRDYGYFDVWGQGTTVTVSS VL: DIQMTQSPSSLSASVGDRVTITCQASQDISNYLNWYQQKPGKAPKLLIYFKSKLETGVPSRFSGSGSGTDFTFTISSLQPEDIATYYCQQGNTLPLTFGGGTKLEIK"
observationtype = "EC50"
readoutunit = "µg/mL"
measuredresult = 0.0084


Consider the binder 11G2huVH3 + huVL2(P07268) (antibody, V domains shown, Humanized 11G2) VH: QVQLVQSGAEVKKPGASVKVSCKASGYTFITYDINWVRQATGQGLEWIGWIYPRDGNTQFNENFQGRVTMTRNTSISTAYMELSSLRSEDTAVYYCARGDRDYGYFDVWGQGTTVTVSS VL: DIQMTQSPSSLSASVGDRVTITCRASQDISNYLNWYQQKPGKAPKLLIYFKSKLHSGVPSRFSGSGSGTDFTLTISSLQPEDFATYYCQQGNTLPLTFGGGTKLEIK and give its measured EC50.
0.0299

Consider the binder 11G2huVH3 + huVL1(P07264) (antibody, V domains shown, Humanized 11G2) VH: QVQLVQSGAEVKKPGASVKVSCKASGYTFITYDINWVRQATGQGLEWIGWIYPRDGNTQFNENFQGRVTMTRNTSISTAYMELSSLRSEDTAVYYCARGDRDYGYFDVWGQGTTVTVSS VL: DIQMTPSTSSLSASVGDRVTITCRASQDISNYLNWYQQKPGKAVKLLIYFKSKLHSGVPSRFSGSGSGTDFTLTISSLQPEDFATYYCQQGNTLPLTFGGGTKLELK and give its measured EC50.
0.0275

Consider the binder 11G2huVH4 + huVL1(P07265) (antibody, V domains shown, Humanized 11G2) VH: QVQLVQSGAEVKKPGASVKVSCKASGYTFITYDINWVRQAPGQGLEWIGWIYPRDGNTQYAQKFQGRVTMTTDTSTSTAYMELRSLRSDDTAVYYCARGDRDYGYFDVWGQGTTVTVSS VL: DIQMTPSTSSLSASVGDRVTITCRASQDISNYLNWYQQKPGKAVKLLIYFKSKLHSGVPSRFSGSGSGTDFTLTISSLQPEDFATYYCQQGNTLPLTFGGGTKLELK and give its measured EC50.
0.0256

Ref: patent US20240392024A1
